Biological target: Neuronal acetylcholine receptor; alpha4/beta2 (Rattus norvegicus, UniProt P09483+P12390)
Sequence (P09483 whole entry): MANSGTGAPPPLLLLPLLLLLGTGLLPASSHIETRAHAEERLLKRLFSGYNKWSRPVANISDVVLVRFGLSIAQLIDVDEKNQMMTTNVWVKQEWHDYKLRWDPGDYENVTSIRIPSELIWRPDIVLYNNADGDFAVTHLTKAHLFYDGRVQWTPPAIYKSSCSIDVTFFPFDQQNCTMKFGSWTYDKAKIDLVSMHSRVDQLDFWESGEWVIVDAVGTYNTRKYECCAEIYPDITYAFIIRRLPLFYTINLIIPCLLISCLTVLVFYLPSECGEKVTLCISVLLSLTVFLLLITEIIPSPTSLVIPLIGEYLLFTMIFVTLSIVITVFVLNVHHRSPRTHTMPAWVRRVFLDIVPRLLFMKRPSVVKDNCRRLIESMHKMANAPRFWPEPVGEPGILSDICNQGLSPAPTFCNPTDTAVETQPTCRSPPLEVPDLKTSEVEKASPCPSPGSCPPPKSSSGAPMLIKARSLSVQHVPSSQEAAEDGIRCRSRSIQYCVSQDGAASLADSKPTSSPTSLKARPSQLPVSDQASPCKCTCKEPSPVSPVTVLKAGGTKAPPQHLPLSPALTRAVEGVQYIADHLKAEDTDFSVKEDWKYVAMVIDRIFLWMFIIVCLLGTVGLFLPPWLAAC
Sequence (P12390 whole entry): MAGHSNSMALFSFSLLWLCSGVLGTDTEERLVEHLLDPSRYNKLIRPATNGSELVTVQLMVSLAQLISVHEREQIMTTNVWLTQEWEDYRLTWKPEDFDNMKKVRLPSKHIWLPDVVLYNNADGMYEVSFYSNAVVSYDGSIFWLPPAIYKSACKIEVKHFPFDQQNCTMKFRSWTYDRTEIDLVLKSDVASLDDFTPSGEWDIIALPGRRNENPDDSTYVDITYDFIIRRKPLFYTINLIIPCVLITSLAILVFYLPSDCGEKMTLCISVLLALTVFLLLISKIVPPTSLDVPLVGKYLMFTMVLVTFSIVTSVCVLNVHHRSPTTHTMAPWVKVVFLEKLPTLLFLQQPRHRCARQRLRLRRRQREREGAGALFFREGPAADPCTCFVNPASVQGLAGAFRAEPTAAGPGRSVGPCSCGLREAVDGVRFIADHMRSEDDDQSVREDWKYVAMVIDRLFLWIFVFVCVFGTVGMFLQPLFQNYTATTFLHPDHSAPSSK
Assay: Displacement of [3H]epibatidine from alpha4beta2 nAChR in Sprague-Dawley rat cerebral cortex by beta counting
Metric: Kd
Note: a bare number is incomplete; add the unit.

Query: Look up Kd: CN1CCC[C@H]1[C@H]1COc2ccc(Br)cc2O1
Result: 36 pM

###

Target: Neuronal acetylcholine receptor subunit alpha-7 (Rattus norvegicus, UniProt Q05941)
Sequence (Q05941 whole entry): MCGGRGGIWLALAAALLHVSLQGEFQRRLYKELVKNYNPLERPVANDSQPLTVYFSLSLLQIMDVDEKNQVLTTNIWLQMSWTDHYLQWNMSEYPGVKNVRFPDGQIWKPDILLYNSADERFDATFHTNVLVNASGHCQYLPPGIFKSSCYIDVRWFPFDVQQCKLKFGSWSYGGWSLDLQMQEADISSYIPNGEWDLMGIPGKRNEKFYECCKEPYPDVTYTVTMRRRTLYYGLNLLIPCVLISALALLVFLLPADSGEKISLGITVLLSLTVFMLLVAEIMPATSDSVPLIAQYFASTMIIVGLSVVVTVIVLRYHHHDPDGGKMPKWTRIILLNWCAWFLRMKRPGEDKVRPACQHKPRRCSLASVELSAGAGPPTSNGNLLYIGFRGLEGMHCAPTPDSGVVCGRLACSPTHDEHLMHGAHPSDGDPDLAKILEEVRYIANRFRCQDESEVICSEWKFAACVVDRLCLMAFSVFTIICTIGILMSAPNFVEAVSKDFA
Experiment: Displacement of [125I]alpha-bungarotoxin from alpha7 nAChR in Sprague-Dawley rat cerebral cortex […]
I'd appreciate it if you could supply Ki values for the items below.
All answers are understood in µM, so give the number only.

Query: Look up Ki: CC(C)Oc1ccc2c(c1)O[C@@H]([C@@H]1CCCN1C)CO2
Result: 43

Query: Look up Ki: CC(=O)c1ccc2c(c1)O[C@@H]([C@@H]1CCCN1C)CO2
Result: 30

Query: Look up Ki: Cc1ccc2c(c1)O[C@@H]([C@@H]1CCCN1C)CO2
Result: 64

Query: Look up Ki: COc1ccc2c(c1)O[C@H]([C@@H]1CCCN1C)CO2
Result: 32

Query: Look up Ki: CC(C)Oc1ccc2c(c1)O[C@H]([C@@H]1CCCN1C)CO2
Result: 6.1

Query: Look up Ki: CN1CCC[C@H]1[C@H]1COc2ccc(-c3ccccc3)cc2O1
Result: 51

Query: Look up Ki: CN1CCC[C@H]1[C@H]1COc2ccc(CO)cc2O1
Result: 12

Query: Look up Ki: CN1CCC[C@H]1[C@H]1COc2ccc(O)cc2O1
Result: 20

Query: Look up Ki: Oc1ccc2c(c1)O[C@@H]([C@@H]1CCCN1)CO2
Result: 53

Query: Look up Ki: CN1CCC[C@H]1[C@@H]1COc2ccc(-c3ccccc3)cc2O1
Result: 36

Query: Look up Ki: CC(=O)c1ccc2c(c1)O[C@H]([C@@H]1CCCN1C)CO2 (racemic)
Result: 110

###

Molecular target: Neuronal acetylcholine receptor subunit alpha-7 (Rattus norvegicus, UniProt Q05941)
Experiment: Displacement of [125I]alpha-bungarotoxin from alpha7 nAChR in Sprague-Dawley rat cerebral cortex […]
Metric: Ki (µM)
All answers are understood in µM, so give the number only.

Query: Lab note: need Ki for COc1ccc2c(c1)O[C@@H]([C@@H]1CCCN1C)CO2 on Neuronal acetylcholine receptor subunit alpha-7 (Rattus norvegicus, UniProt Q05941), anyone have it?
Result: 26

Query: Lab note: need Ki for CN1CCC[C@H]1[C@@H]1COc2ccc(Br)cc2O1 on Neuronal acetylcholine receptor subunit alpha-7 (Rattus norvegicus, UniProt Q05941), anyone have it?
Result: 22

Query: Lab note: need Ki for CN1CCC[C@@H]1[C@H]1COc2ccc(O)cc2O1 on Neuronal acetylcholine receptor subunit alpha-7 (Rattus norvegicus, UniProt Q05941), anyone have it?
Result: 4.5

Query: Lab note: need Ki for CN1CCC[C@H]1[C@H]1COc2ccc(Br)cc2O1 on Neuronal acetylcholine receptor subunit alpha-7 (Rattus norvegicus, UniProt Q05941), anyone have it?
Result: 22

Query: Lab note: need Ki for CN1CCC[C@@H]1[C@@H]1COc2ccc(O)cc2O1 on Neuronal acetylcholine receptor subunit alpha-7 (Rattus norvegicus, UniProt Q05941), anyone have it?
Result: 1.3

###

Biological target: Neuronal acetylcholine receptor; alpha4/beta2 (Rattus norvegicus, UniProt P09483+P12390)
Assay: Agonist activity at rat alpha4beta2 nAChR assessed as [3H]dopamine release by beta counting
Format: functional
Metric: EC50

Query: Look up EC50: c1cnc2cc3c(cc2n1)[C@@H]1CNC[C@H]3C1
Result: 46 nM

###

Molecular target: Neuronal acetylcholine receptor; alpha4/beta2 (Rattus norvegicus, UniProt P09483+P12390)
Assay: Partial agonist activity at Nicotinic acetylcholine alpha4beta2 receptor in rat striatum assessed as [3H]dopamine release by beta counting
Assay type: functional, tissue-based
Metric: EC50 (nM)
All answers are understood in nM, so give the number only.

Query: Lab note: need EC50 for CN1CCC[C@H]1[C@@H]1COc2ccc(O)cc2O1 on Neuronal acetylcholine receptor; alpha4/beta2 (Rattus norvegicus, UniProt P09483+P12390), anyone have it?
Result: 82

###

Biological target: Neuronal acetylcholine receptor; alpha3/beta4 (Rattus norvegicus, UniProt P04757+P12392)
Sequence (P04757 whole entry): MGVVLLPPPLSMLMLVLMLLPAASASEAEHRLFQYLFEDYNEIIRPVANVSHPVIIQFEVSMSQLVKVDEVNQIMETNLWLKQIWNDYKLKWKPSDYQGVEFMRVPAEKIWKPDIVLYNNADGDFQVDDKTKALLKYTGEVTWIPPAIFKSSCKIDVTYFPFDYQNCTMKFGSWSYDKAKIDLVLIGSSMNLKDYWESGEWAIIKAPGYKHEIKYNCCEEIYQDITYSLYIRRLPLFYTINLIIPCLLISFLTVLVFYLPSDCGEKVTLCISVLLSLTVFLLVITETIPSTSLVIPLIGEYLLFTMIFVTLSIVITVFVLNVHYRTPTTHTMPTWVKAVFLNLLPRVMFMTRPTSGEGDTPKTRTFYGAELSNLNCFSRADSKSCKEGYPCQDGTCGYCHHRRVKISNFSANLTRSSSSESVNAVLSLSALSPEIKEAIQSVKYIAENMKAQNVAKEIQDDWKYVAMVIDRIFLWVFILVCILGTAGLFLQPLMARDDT
Sequence (P12392 whole entry): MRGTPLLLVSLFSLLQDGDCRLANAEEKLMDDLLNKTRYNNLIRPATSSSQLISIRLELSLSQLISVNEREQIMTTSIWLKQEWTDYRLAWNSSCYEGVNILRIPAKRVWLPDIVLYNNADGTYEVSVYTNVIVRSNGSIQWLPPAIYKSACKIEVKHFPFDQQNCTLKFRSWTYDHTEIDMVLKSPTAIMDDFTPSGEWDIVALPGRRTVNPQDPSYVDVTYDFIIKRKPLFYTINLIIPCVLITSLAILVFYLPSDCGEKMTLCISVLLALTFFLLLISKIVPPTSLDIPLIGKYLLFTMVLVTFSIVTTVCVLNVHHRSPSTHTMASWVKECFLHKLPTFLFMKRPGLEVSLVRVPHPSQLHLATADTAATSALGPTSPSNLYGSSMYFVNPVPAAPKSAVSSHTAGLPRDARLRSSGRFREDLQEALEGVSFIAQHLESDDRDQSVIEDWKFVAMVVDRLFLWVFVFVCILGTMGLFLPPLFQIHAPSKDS
Assay: Partial agonist activity at rat alpha3beta4 nAChR assessed as [3H]noradrenaline release from rat […] by beta counting
Metric: EC50 (µM)
All answers are understood in µM, so give the number only.

Query: Look up EC50: CN1CCC[C@H]1[C@@H]1COc2ccc(O)cc2O1
Result: 17.6

###

Molecular target: Neuronal acetylcholine receptor subunit alpha-7 (Rattus norvegicus, UniProt Q05941)
Assay: Displacement of [125I]alpha-bungarotoxin from alpha7 nAChR in Sprague-Dawley rat cerebral cortex […]
Metric: pKd
FYI, pKd means -log10 of a concentration in mol per litre.

Query: Look up pKd: CN1CCC[C@H]1[C@H]1COc2ccc(Br)cc2O1
Result: 9.52

###

Molecular target: Neuronal acetylcholine receptor; alpha4/beta2 (Rattus norvegicus, UniProt P09483+P12390)
Test: Displacement of [3H]epibatidine from alpha4beta2 nAChR in Sprague-Dawley rat cerebral cortex by beta counting
I'd appreciate it if you could supply Ki values for the items below.
All answers are understood in µM, so give the number only.

Query: Look up Ki: COc1ccc2c(c1)O[C@@H]([C@@H]1CCCN1C)CO2
Result: 4.2

Query: Look up Ki: CN1CCC[C@@H]1[C@H]1COc2ccc(O)cc2O1
Result: 3.5

Query: Look up Ki: CN1CCC[C@H]1[C@H]1COc2ccc(O)cc2O1
Result: 0.421

Query: Look up Ki: Cc1ccc2c(c1)O[C@@H]([C@@H]1CCCN1C)CO2
Result: 5.7

Query: Look up Ki: CC(C)Oc1ccc2c(c1)O[C@@H]([C@@H]1CCCN1C)CO2
Result: 3.2

Query: Look up Ki: CN1CCC[C@H]1[C@H]1COc2ccc(Br)cc2O1
Result: 3

Query: Look up Ki: CC(=O)c1ccc2c(c1)O[C@@H]([C@@H]1CCCN1C)CO2
Result: 11.7

Query: Look up Ki: Oc1ccc2c(c1)O[C@H]([C@H]1CCCN1)CO2
Result: 1.3

Query: Look up Ki: CN1CCC[C@H]1[C@@H]1COc2ccc(CO)cc2O1
Result: 51

Query: Look up Ki: CN1CCC[C@H]1[C@@H]1COc2ccc(-c3ccccc3)cc2O1
Result: 35

Query: Look up Ki: Oc1ccc2c(c1)O[C@H]([C@@H]1CCCN1)CO2
Result: 9

###

Biological target: Neuronal acetylcholine receptor subunit alpha-7 (Rattus norvegicus, UniProt Q05941)
Test: Displacement of [125I]alpha-bungarotoxin from alpha7 nAChR in Sprague-Dawley rat cerebral cortex […]
Metric: Ki
Note: a bare number is incomplete; add the unit.

Query: Look up Ki: Cc1ccc2c(c1)O[C@H]([C@@H]1CCCN1C)CO2
Result: 126 µM

Query: Look up Ki: CN1CCC[C@H]1[C@@H]1COc2ccc(CO)cc2O1
Result: 60 µM

Query: Look up Ki: Oc1ccc2c(c1)O[C@@H]([C@H]1CCCN1)CO2
Result: 35 µM

Query: Look up Ki: Oc1ccc2c(c1)O[C@H]([C@H]1CCCN1)CO2
Result: 3 µM

Query: Look up Ki: CN1CCC[C@H]1[C@@H]1COc2ccc(O)cc2O1
Result: 0.427 µM

Query: Look up Ki: Oc1ccc2c(c1)O[C@H]([C@@H]1CCCN1)CO2
Result: 33 µM
